# Study target: IL-6R on TF-1 cells (Homo sapiens (Human), UniProt P08887)
# Test method notes: cell-based or functional assay
Reported IC50, IL-6-dependent proliferation of TF-1 cells (3H-thymidine) values for the following binders.
Answer by giving the amount and then stating its unit.

Task: Given the binder IL6RPMP120A5 (VHH) VHH: EVQLVESGGGLVQAGGSLSLSCATSGRTISDDTMAWFRQAPGKEREFVAIITFNGARTHYSDSVRDRFTISRDNAKNTVYLQMNSLKSEDTAVYYCAASTKYYSSTYNYIHPAFYDIWGQGTQVTVSS , what is its reported IC50, IL-6-dependent proliferation of TF-1 cells (3H-thymidine)?
Output: 5.59 nM

Task: Given the binder IL6RPMP100G11 (VHH) VHH: EVQLVESGGGLVQAGGSLRLSCAASGRGFSPYTMGWFRQAPGKERVFVAGISWSTGIAHYTDSVKGRFTISRDNAKNTGSLQMNSLKPEDTAVYYCAVVQTTKGNYDYWGQGTQVTVSS , what is its reported IC50, IL-6-dependent proliferation of TF-1 cells (3H-thymidine)?
Output: 116 nM

Task: Given the binder IL6RPMP103C4 (VHH) VHH: EVQLVESGGGLVEAGGSLRLSCAAAGRTLSSYSMAWFRQAPGKEREFVAIIRGNPSRTYHSDSVKGRFTASRDNAKNTVYLQMNRLEPEDTAVYYCAADPPPFASDYSAPQSYDYWGQGTQVTVSS , what is its reported IC50, IL-6-dependent proliferation of TF-1 cells (3H-thymidine)?
Output: 15.6 nM

Task: Given the binder IL6RPMP103C7 (VHH) VHH: EVQLVESGGGLVQAGGSLSLSCATSGRTISDDTMAWFRQAPGKEREFVATITFSGARTHYSDSVRDRFTISRDNAKNTVYLQMDSLKSEDTAVYYCAASTKYYSSTYNYIHPAFYDIWGQGTQVTVSS , what is its reported IC50, IL-6-dependent proliferation of TF-1 cells (3H-thymidine)?
Output: 61.3 nM

Task: Given the binder IL6RPMP104B8 (VHH) VHH: EVQLVESGGGLVQAGGSLRLSCAASGFAFDDYAIGWFRQAPGKEREGVSSISSSNGNTYYADSVRGRFTISSDNAKNTVYLQMNSLKPEDTGVYYCAAIWGIFFNEKMPVGAYDYWGQGTQVTVSS , what is its reported IC50, IL-6-dependent proliferation of TF-1 cells (3H-thymidine)?
Output: 245 nM

Task: Given the binder IL6RPMP107A9 (VHH) VHH: EVQLVESGGGLVQAGGSLRLSCAASGGIFSDMFMGWFRQAPGKSRESVARISPSGNTFYQDSVRGRFTISTDNAKNTVYLQMNNLKPEDTAVYYCAANVGVTGSYEYWGQGTQVTVSS , what is its reported IC50, IL-6-dependent proliferation of TF-1 cells (3H-thymidine)?
Output: 349 nM

Task: Given the binder IL6RPMP120G6 (VHH) VHH: EVQLVESGGDLVQTGGSLRLSCAASGITVSDRAMGWYRQAPGKQREMVAGVSRGGMTSYADSVKGRLTISRDNAKNSVYLQMNSLNPEDTAVYYCSAYYRYGSSVPQYWGQGTQVTVSS , what is its reported IC50, IL-6-dependent proliferation of TF-1 cells (3H-thymidine)?
Output: 10.2 nM

Task: Given the binder IL6RPMP108E1 (VHH) VHH: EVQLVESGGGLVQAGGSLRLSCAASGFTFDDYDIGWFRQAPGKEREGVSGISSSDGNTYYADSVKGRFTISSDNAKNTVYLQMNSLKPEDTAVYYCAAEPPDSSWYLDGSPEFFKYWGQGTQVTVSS , what is its reported IC50, IL-6-dependent proliferation of TF-1 cells (3H-thymidine)?
Output: 0.149 nM

Task: Given the binder Reference IgG (antibody, V domains shown) VH: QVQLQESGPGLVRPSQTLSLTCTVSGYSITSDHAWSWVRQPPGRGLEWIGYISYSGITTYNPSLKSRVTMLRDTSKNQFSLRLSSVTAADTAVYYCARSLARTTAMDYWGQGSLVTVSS VL: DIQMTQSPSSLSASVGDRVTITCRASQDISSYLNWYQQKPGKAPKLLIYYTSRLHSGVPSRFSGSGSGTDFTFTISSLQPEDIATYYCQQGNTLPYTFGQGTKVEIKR , what is its reported IC50, IL-6-dependent proliferation of TF-1 cells (3H-thymidine)?
Output: 0.53 nM

Task: Given the binder IL6RPMP107A1 (VHH) VHH: EVQLVESGGGLVQAGGSLNLSCNASGDIGSINAMGWYRQAPGQQREWVAVITDTDSTIYPDSVKGRFAISRDGAKNTVHLRMSSLKPEDTAVYYCNAYQAGWGDYWGQGTQVTVSS , what is its reported IC50, IL-6-dependent proliferation of TF-1 cells (3H-thymidine)?
Output: 4.05 nM

Task: Given the binder IL6RPMP105E1 (VHH) VHH: EVQLVESGGGLVQAGGSLRLSCAASGSIFSIKAMGWYRQAPGKQRELVARITSGGSTYYADSVKGRFTISRDNAKNTVYLQMNSLKPEDTAVFYCNAIVTDSDYDLGNDYWGQGTQVTVSS , what is its reported IC50, IL-6-dependent proliferation of TF-1 cells (3H-thymidine)?
Output: 6.2 nM

Task: Given the binder IL6RPMP103H9 (VHH) VHH: EVQLVESGGGLVQPGGSLRLSCAASKSIFDINAMYWHRQAPGKQRESVASITSGGMRNYADSVKDRFTISKDNAKNTVYLQMNGLKPDDTAVYYCGLGRYEGGVWRDYWGQGTQVTVSS , what is its reported IC50, IL-6-dependent proliferation of TF-1 cells (3H-thymidine)?
Output: 1470 nM
